- target: p110α (Homo sapiens)
- Construct: purchased Upstate Millipore
- Sequence (P42336 whole entry, species assumed): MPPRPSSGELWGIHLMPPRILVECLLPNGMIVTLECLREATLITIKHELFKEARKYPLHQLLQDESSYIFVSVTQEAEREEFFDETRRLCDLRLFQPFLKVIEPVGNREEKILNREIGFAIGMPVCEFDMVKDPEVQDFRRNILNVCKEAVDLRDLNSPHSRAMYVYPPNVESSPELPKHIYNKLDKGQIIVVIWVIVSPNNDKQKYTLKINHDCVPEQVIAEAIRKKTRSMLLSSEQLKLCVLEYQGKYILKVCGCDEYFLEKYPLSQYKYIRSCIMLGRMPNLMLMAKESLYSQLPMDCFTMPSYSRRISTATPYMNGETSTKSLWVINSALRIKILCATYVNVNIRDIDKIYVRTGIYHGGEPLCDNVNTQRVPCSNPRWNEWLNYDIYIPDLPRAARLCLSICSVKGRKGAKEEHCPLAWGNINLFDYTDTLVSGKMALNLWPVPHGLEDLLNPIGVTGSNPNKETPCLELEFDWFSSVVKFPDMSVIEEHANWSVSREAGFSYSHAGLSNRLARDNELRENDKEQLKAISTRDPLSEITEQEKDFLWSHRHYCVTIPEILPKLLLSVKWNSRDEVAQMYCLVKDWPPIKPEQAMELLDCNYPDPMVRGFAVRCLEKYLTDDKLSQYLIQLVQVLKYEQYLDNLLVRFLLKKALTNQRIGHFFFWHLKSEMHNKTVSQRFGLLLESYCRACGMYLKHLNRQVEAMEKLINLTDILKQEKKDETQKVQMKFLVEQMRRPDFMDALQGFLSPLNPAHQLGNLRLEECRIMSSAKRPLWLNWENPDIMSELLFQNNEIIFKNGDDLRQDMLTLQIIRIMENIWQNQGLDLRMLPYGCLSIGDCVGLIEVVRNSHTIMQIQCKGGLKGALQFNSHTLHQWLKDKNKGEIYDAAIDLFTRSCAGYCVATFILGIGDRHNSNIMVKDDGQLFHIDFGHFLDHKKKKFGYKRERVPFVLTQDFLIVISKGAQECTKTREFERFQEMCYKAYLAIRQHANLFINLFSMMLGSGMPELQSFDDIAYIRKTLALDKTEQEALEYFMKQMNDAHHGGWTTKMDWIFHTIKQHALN
- Sequence (P27986 whole entry partner, species assumed): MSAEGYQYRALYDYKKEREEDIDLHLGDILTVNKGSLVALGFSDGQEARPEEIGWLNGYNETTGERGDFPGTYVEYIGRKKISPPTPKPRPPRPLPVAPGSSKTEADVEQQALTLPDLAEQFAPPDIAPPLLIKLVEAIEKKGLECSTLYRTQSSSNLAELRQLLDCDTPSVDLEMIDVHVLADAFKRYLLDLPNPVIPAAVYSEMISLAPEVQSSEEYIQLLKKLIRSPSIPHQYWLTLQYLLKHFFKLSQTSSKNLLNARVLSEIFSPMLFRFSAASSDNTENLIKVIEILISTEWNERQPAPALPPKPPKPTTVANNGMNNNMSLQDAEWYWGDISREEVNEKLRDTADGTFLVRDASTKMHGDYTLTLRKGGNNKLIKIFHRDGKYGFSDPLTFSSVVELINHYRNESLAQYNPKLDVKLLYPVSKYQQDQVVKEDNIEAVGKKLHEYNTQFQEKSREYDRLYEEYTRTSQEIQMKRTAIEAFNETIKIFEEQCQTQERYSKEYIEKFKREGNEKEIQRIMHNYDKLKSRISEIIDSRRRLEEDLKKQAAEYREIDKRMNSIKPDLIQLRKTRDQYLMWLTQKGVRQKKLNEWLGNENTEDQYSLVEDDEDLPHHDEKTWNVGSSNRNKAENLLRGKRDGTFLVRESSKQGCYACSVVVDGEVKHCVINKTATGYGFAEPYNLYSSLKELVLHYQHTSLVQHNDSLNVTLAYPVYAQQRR
- method.notes: p110α radioactive lipid kinase assay (PI3Kα)
- Assay type: biochemical
- experimental.setup: 25 μM ATP, 2 h at RT, read-out: IC50 in μM (PI3 kinase activity)
Please provide measured IC50 for the entries that follow.

What value of measured IC50 is listed for "Cn1c(=NC#N)n(-c2ccc(C(C)(C)C#N)nc2)c2c3cc(-c4ccc5cn[nH]c5c4)ccc3ncc21" ?
0.01 to 1 µM

Any idea what its IC50 is? The molecule is "COc1ncc(-c2ccc3ncc4c(c3c2)n(-c2ccc(C(C)(C)C#N)nc2)c(=NC#N)n4C)cc1NS(=O)(=O)c1ccccc1"
≤ 0.01 µM

Sample "Cn1c(=NC#N)n(-c2ccc(C(C)(C)C#N)nc2)c2c3cc(-c4cncc(C(F)(F)F)c4)ccc3ncc21" — what was its IC50?
≤ 0.01 µM
